- TEST PROTOCOL: Apparent permeability from apical to basolateral side in MDCK-MDR1 cells
- Format: ADME, cell-based, Canis lupus familiaris
- TEST CONDITIONS: dog
METRIC NAME: Papp A→B

smiles_record=C=CC(=O)NCCCC[C@H](NC(=O)OCc1ccccc1)C(=O)N1CCN(C(=O)[C@@H](Cc2ccccc2)NC(=O)c2cccc3ccccc23)CC1 metric_name="Papp A→B" observed_result="0.6 nm/s"

Proceeding to the next compound to report its Papp A→B.
query: Which Papp A→B value is on record for C=CC(=O)NCCCC[C@H](NC(=O)OCc1ccccc1)C(=O)N1CCN(C(=O)CNC(=O)c2cccc3ccccc23)CC1 ?
result: 5.5 nm/s

* * *

Listed here: items and their measured logP.
- TEST PROTOCOL: Lipophilicity, logP of the compound
- Type: physicochemical
- TEST CONDITIONS: octanol/water

smiles_record=C=CC(=O)NCCCC[C@H](NC(=O)OCc1ccccc1)C(=O)N1CCN(C(=O)[C@@H](Cc2ccccc2)NC(=O)c2cccc3ccccc23)CC1 metric_name=logP observed_result=2.73

Now let's try a different one.
query: Look up logP for this molecule: C=CC(=O)NCCCC[C@H](NC(=O)OCc1ccccc1)C(=O)N1CCN(C(=O)CNC(=O)c2cccc3ccccc23)CC1
result: 2.99

* * *

Recorded measurements of Ratio, one per entry
- TESTED ON: UniProtKB P21980
- Sequence (whole entry): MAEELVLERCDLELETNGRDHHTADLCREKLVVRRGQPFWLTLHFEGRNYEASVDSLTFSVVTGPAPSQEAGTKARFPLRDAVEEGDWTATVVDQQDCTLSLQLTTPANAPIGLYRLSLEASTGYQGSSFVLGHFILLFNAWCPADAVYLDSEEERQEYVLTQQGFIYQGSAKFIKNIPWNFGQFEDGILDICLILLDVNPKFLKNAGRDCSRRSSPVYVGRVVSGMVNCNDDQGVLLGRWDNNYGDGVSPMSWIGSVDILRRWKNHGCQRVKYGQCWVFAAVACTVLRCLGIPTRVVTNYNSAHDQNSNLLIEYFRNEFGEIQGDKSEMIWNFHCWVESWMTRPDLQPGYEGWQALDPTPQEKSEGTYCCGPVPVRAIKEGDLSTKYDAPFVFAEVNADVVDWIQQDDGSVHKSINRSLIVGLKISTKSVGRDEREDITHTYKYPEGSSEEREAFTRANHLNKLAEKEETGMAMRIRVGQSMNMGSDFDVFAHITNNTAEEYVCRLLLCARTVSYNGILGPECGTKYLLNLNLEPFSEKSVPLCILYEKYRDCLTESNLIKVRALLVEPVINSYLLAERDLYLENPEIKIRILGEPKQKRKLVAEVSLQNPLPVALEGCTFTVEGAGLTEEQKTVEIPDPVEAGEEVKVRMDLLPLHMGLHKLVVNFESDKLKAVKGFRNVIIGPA
- TEST PROTOCOL: Irreversible inhibition of recombinant human TG2 expressed in Escherichia coli BL21 assessed as ratio of Kinact/Ki using AL5 as substrate by continuous chromogenic assay

Solved cases (2 shown):
smiles_record=C=CC(=O)NCCCC[C@H](NC(=O)Cc1ccccc1Br)C(=O)N1CCN(C(=O)[C@H](C)NC(=O)c2cccc3ccccc23)CC1 observed_result="275 10^3/M/min"
smiles_record=C=CC(=O)NCCCC[C@H](NC(=O)Cc1ccccc1Br)C(=O)N1CCN(C(=O)[C@@H](C)NC(=O)c2cccc3ccccc23)CC1 observed_result="209 10^3/M/min"

query: Param readout= Ratio; system= UniProtKB P21980; entry= C=CC(=O)NCCCC[C@H](NC(=O)OCc1ccccc1)C(=O)N1CCN(C(=O)[C@@H](Cc2ccccc2)NC(=O)c2cccc3ccccc23)CC1 ; returns value.
result: 760 10^3/M/min
